# Assay System: T1, recombinant cynomolgus CFD, His-tagged (cynomolgus)
# T1 construct: also called rcyCFD-His; recombinant Cyno-CFD
# Protocol Details: SPR MX96
Exercise: state measured pKd for each of the binders provided.
Would you please state pKd, meaning minus log10 of the concentration in mol/L, as a bare number?

Prompt: pKd for KCD110 (antibody, V domains shown) VH: EVQLQQSGPELVKPGASVKISCKASGYSFTGYYMHWVKQSHGNILDWIGYIDPDNGVSSKNQKFTGKATVTADKSSSTAYMELRSLTSEDSAVYYCAGYYGSSWYWYFDVWGTGTTVTVSS VL: QIVLSQSPAILSASPGEKVTMTCRASSSVSYMHWYQQKPGSSPKPWIYATSNLASGVPARFSGSGSGTSYSLTISRVEAEDAATYYCQQWSSNPYTFGGGTKLEIK ?
Completion: 8.28

Prompt: Follow-up item: KCD018 (antibody, V domains shown) VH: QVQLQQSAAELARPGASVKMSCKASGYTFTSYTVHWVKQRPGQGLEWIGYINPSSGFTDYNQKFKDKTTLTADISSSTAYIQLSSLTSEDSAVYYCARRGVNWSWFAYWGQGTLVTVSA VL: NIMMTQSPSSLAVSAGEKVTMSCKSSQSVLYSSNQKNYLAWYQQKPGQSPQLLIYWASTRESGVPERFTGSGSGTDFTLTISSVQAEDLAVYYCHQYLSSWTFGGGTKLEIK
Completion: 7.28

Prompt: Follow-up item: KCD056 (antibody, V domains shown) VH: EVKLVESGGGLVQPGGSLKVSCAASGFTFSTYTMSWVRQTPEKRLEWVAYITNGGGSTYYPDTEKGRFTISRDNAKNTLYLQMSSLKSEDTAMYYCVRHDYYAMDYWGQGTSVTVSS VL: DIQMTQSPSSLSASLGGKVTITCKASQDINKYIAWYQHKPGKGPRLLIHYTSTLQPGIPSRFSGSGSGRDYSFSISNLEPEDIATYYCLQYDNLLYTFGGGTTLEIK
Completion: 7.51

Prompt: Follow-up item: KCD013 (antibody, V domains shown) VH: EVQLQQSGAELVKPGASVKLSCTASGFKIKDTYMHWVKERPDQGLEWIGRIDPANGNTKYDPKFQGKATITADTSSNTAYLQLSSLTSEDTAVYYCANAMDYWGQGTSVTVSS VL: QIILTQSPAIMSASPGEKVTMTCSASSSVSNMYWYQQKPGSSPRLLIYDTSNLASGVPVRFSGSGSGASYSLTISRMEAEDAATYYCQQWSSYPWTFGGGTKLEIK
Completion: 7.03

Prompt: Follow-up item: KCD039 (antibody, V domains shown) VH: EVQLQQSGPEMVKPGASMKISCKASGYSFADYTLNWVKQSHGKSLEWIGLINPYNGGTSYNQKFMGKATLTVDKSSSTAYMELLSLTSEDSAVYYCTRWGTYSHNYDYAMDYWGQGTSVTVSS VL: DVVMTQTPLSLSVSLGDQASISCRSSQSLVHSNGNTYLYWYLQKPGQSPKLLIYKVSNRFSGITDRFSGSGSGTDFTLKISRVEAEDLGVYFCSQSTHVPPFTFGSGTKLEIK
Completion: 7.41

Prompt: Follow-up item: KCD033 (antibody, V domains shown) VH: EVQLQQSGPELVKPGASMKISCTASGYSFTGYTMTWVKQSHGKNLEWIGLINPYNGGTNYNQKFKGKATLTVDKSSSIAYMELLSLTSEDSAVYYCARRHYGSNWDYWGQGTTLTVSS VL: DIKLTQSPSSIYTSLGERVTITCKASQDINTYLSWFQQRPGKSPKTLIYRADRLVDGVPSRVRGSGSGQDYSLTISSLEYEDMGIYYCLQYDEFPYTFGGGTKLEIK
Completion: 7.03

Prompt: Follow-up item: KCD062 (antibody, V domains shown) VH: EVKLVESGGGLVQPGGSLKLSCAASGFTFSTYIMSWVRQTPEKRLEWVAYITSGGSSTYYPDTVKGRFTISRDNAKSTLYLQMSSLKSEDTAMYYCARHAHFYAMDYWGQGTSVTVSS VL: DIQMTQSPSSLSASLGGKVTITCKASQDINKYIAWYQHKPGKGPRLLIHYTSTLQPGIPSRFSGSGSGRDYSFSISNLEPEDIATYYCLQYDNLLYTFGGGTKLEIK
Completion: 7.72

Prompt: Follow-up item: KCD118 (antibody, V domains shown, chimeric) VH: EVQLQQSGPELVKPGASVKISCKAFGYTFTDYYKNWMRQRHGESLEWIGDINPNSGDANYNQKFKGKATLTVDKSSSTAYMELRSLTSEDSAVYYCAREGPSFAYWGHGTLVTVSA VL: DVLMTQTPLSLPVSLGDQASISCRSSQTIVHSNGDTYLEWYLQKPGQSPNLLIYKVSNRFSGVPDRFSGSGSGTDFTLKISRVEAEDLGIYYCFQGSHVPPTFGGGTKLEIK
Completion: 8.89

Prompt: Follow-up item: KCD126 (antibody, V domains shown) VH: EVQLQQSGAELVRPGSSVKMSCKTSGKTFTSHGINWVKQRPGQGLEWIGYIYIGNGYNEYNEKFKGKATLTSDTSSSTAYMQLSSLTFEDSAIYFCVRKAYGNYGFDDWGQGTTLTVSS VL: DIQMTQSPTSLSASLGESVSLTCRASQEISGNLNWLQQKPDGSIKRLIYAASTLDSGVPKRFSGSRSGSDYSLTISSLESEDFADYYCLQYANYPFTFGSGTKLEVK
Completion: 9.03

Prompt: Follow-up item: KCD008 (antibody, V domains shown) VH: EVQLQQSGPELVKAGASVKMSCTASGFNIKDTYMHWVKQRPEQGLAWIGRIDPANGNIKYDPKFQGKATITADTSSNTAYLQLSSLTSDDTAVYYCTSAMDYWGQGTSVTVSS VL: QIVLTQSPEIMSASPGEKVTMTCSARSSVSYMYWYQQKPGSSPRLLIYDTSNLASGVPVRFSGSGSGTSYSLTISRMETEDAATYYCQQWSTYPFTFGSGTKLEIK
Completion: 7.18

All figures here come from patent US20180334496A1.
